// reported PBM E-score for each item listed
- System under test: Stb5 (UniProt P38699)
- Sequence: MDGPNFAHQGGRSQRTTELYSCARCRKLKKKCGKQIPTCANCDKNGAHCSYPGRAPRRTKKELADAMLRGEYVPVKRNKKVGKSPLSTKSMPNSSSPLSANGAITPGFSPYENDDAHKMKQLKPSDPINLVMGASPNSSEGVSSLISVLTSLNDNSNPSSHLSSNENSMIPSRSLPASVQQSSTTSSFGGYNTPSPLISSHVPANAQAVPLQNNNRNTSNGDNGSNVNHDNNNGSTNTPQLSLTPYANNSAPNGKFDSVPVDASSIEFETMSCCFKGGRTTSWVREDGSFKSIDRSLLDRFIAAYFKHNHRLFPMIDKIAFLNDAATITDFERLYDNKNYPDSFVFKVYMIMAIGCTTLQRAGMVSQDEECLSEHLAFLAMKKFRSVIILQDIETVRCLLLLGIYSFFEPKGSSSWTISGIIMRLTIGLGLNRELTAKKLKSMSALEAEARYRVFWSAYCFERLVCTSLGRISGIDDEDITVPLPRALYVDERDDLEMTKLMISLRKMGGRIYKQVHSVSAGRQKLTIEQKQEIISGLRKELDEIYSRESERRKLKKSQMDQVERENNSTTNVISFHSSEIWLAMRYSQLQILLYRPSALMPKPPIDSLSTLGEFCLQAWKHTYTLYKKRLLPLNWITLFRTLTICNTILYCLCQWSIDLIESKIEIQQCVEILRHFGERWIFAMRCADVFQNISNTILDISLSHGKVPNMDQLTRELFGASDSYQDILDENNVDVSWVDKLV
- Protocol: PBM E-score (8-mer binding enrichment) (E-score (-0.5 to 0.5)); higher = stronger / more preferred TF binding
- Experimental parameters: protein concentration: 200 nM; construct: GST-full length
Over roughly 33,000 sequences, “E-score (-0.5 to 0.5)” has its median near -0.054; the highest 2% begin near 0.35. The list comes from a sample in which the highest values are over-represented; it also holds close analogues and randomly drawn sequences.
Please reply with the value in numeric form only.

Query: May I ask what PBM E-score has been recorded for GCTTGGCC ?
Response: 0.143

Further cases:
Query: PBM E-score lookup needed for AGTCGGTC , thanks.
Response: 0.259

Query: Reported PBM E-score for AATCGGGG : what is it?
Response: 0.372

Query: # query: PBM E-score of entry AGTCGGCG
Response: 0.239

Query: # input sequence: CGACGGTC ; wanted: its PBM E-score
Response: 0.315

Query: Report PBM E-score for AGGCGGAA please.
Response: 0.131

###

- System under test: Stb5 (UniProt P38699)
- Sequence: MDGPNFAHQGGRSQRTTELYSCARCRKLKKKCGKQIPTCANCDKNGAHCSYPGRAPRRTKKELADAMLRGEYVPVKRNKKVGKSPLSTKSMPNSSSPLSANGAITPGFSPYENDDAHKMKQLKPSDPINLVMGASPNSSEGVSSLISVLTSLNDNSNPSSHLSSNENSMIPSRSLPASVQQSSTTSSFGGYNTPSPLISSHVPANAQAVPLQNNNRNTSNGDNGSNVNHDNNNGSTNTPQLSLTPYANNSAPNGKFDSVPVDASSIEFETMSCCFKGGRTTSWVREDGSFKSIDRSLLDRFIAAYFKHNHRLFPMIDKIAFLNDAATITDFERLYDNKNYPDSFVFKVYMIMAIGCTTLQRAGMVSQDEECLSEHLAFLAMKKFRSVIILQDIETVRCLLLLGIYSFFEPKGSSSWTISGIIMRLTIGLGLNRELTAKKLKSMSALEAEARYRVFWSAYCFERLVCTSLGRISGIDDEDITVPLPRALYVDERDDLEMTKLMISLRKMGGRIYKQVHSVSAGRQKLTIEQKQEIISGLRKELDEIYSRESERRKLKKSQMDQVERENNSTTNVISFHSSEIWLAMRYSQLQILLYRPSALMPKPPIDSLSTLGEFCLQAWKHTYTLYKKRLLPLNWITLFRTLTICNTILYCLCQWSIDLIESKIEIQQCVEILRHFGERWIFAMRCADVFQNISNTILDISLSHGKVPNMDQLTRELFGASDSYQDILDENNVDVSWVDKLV
- Protocol: PBM E-score (8-mer binding enrichment) (E-score (-0.5 to 0.5)); higher = stronger / more preferred TF binding
- Experimental parameters: protein concentration: 200 nM; construct: GST-full length
The full ranking holds about 33,000 sequences; the median of “E-score (-0.5 to 0.5)” is about -0.054, and the highest 2% start at about 0.35. Only a selection was taken, and the highest values are over-represented in it overall.
Reported PBM E-score maps to class as: low range = under 0.01, mid range = from 0.01 up to 0.3, high range = 0.3 and over

# example entries with known answers
Query: Each sequence maps to one class by PBM E-score. Which class for AAAGCCCC ?
Response: mid range

Query: Hi, small favor: classify AGGGCATA by its PBM E-score when you get a moment.
Response: low range

Query: Which bin, given its PBM E-score, does GCGACGGA occupy?
Response: mid range

Query: // bin(item) where item = CTCATCGC
Response: low range

Query: Bin this entry: AATCCCCC
Response: mid range

Query: Could you place AGGTGCGA in its proper category? Many thanks.
Response: mid range

---
Query: Category of GTGAGCAA , please.
Response: low range

Query: Using the reported PBM E-score, which band applies to GATCTAAC ?
Response: low range

Query: Using the reported PBM E-score, which band applies to GAGGCTGC ?
Response: low range

Query: Band of ATTATCTA ?
Response: low range

Query: Which class is correct for the following sequence? CCGAGGAG
Response: mid range
